MEASURED_METRIC: melting point

Below, each entry is followed by its recorded melting point result.
Cc1cn(-c2cccc(C(F)(F)F)c2)nc(-c2ccnn2-c2ccccc2)c1=O
147 to 150 °C
Cc1[nH]c2cccnc2c1-c1ccc(F)cc1
199 to 206 °C
CCC(COC)n1cc(Cl)nc(N2CCc3cc(OC)cc(Cl)c32)c1=O (stereo unspecified)
126 to 128 °C

// query Query (compound): O=Nc1c(-c2ccccc2)nc2ncccn12 ; field requested: melting point
// result 223 to 225 °C

// query # repeat for N#Cc1cnn(-c2ccc(Cl)cc2Cl)c1NN
// result 199 to 204 °C

// query Then CC(C)n1nc(-c2c(NCCN(C)C)nc(N)nc2-c2ccccc2)ccc1=O ?
// result 164 to 166 °C

----------
MEASURED_METRIC: melting point

Examples with answers:
COCCOC(=O)C1=C(C)NC(C)=C(C(=O)OC(C)C)C1c1ccccc1F (centres undefined)
99 to 100 °C
COC(=O)c1c(C(C)C)c(S(=O)(=O)c2ccc(O)cc2)c2ccccn12
199 °C
CN1C(=O)C2CCCN2C(=O)c2ccccc21 (centres undefined)
124 to 126 °C
NC(=O)[C@@H]1[C@H](Nc2ccnc3[nH]c(-c4ccc(N5CCOCC5)cc4)nc23)[C@H]2C=C[C@@H]1C2
240 to 244 °C
COc1cc(C2=CCCCC2)c(Cl)cc1C(=O)N1Cc2cccn2Cc2ccccc21
92 to 98 °C

// query Query: melting point; subject: CCCCCCCCCCCCc1ccc2c(Cl)cccc2c1O
// result 68 to 70 °C

----------
MEASURED_METRIC: melting point

Reference set (4 entries):
CC(Cl)c1cc(F)ccc1Oc1nc2ccc(-n3cc(-c4ccccc4)nn3)cc2cc1Cc1ccccc1 (stereo not given)
151 to 152 °C
N#CC1CCc2cc(C(=O)O)ccc2C1 (stereo not given)
231 to 236 °C
CCCCNC(=O)C(Cc1ccccc1)NC(=O)Nc1n[nH]c(=S)s1 (stereo not given)
177 to 179 °C
O=C(c1ccccc1)N1CCC(c2c[nH]c3cc(F)ccc23)CC1
220 °C

Attention now shifts to the item below.
// query Param item = CN(C)c1ccc(-c2cnn(-c3cccc(C(=O)O)c3)c2)cc1 ; retrieve measured melting point.
// result 224 to 225 °C

----------
MEASURED_METRIC: melting point

Please review the following examples before continuing.
Cc1cc(F)cc(C)c1Cl
64 to 65 °C
Cc1cc(-c2sc(N3CCN(Cc4ccc(C(F)(F)F)cc4)C3=O)nc2C)n[nH]1
238 to 239 °C
Cc1ccc2c3c(ccc2n1)OC[C@H](CN1CCC(Oc2ccc4c(c2)NC(=O)CO4)CC1)O3
149 to 150 °C
CN(C)C(=O)Nc1cc(CNc2ccccc2C(=O)Nc2ccc3cn(C)nc3c2)ccn1
184 °C

// query So what's the measured melting point for this one? CC(c1c(F)ccc(F)c1Cl)N1CCNc2ncc(I)cc21 (stereo not given)
// result 166 °C

----------
MEASURED_METRIC: melting point

N#Cn1c(-c2ccc(Cl)cc2)c([N+](=O)[O-])c(-c2ccc(Cl)c(Cl)c2)c1C(F)(F)F
98 to 100 °C
COC(=O)c1cc(OCc2ccc(OCc3nc(-c4ccco4)oc3C)c(OC)c2)nn1-c1ccccc1
146 to 147 °C
C=CC(=O)OCCc1cc(=O)c(OCc2ccccc2)c(C(=O)c2ccc(Cc3ccc(F)cc3)o2)o1
104 to 106 °C

Read the next record carefully.
// query Name the recorded melting point for COc1ccc(-c2c(Cl)c(CN3C(=O)CSC3=O)nc3sc4c(c23)CC[C@H](C(N)=O)C4)cc1 .
// result 145 to 148 °C

----------
MEASURED_METRIC: melting point

The following compounds have reported results that may help.
COc1cc(OC)cc(Oc2ccc(C(=O)N(C(C)C)C3CCCCC3)cc2)c1
140 °C
Cc1c(CC(C)(C)C(=O)O)n(Cc2ccc(Cl)cc2)c2ccc(OCc3ccc4ccc(Cl)cc4n3)cc12
105 to 107 °C

// query What value of measured melting point is listed for CC(C)(C)c1ccc(Nc2cccc3c2C(=O)N(C2CCC(=O)NC2=O)C3=O)cc1 (stereo not given) ?
// result 228 to 230 °C

// query What about Cn1cnc2cc(C(c3ccccc3)n3ccnc3)ccc21 (stereo not given) ?
// result 139 °C

// query And for Cc1oc2ccccc2c(=O)c1NC(=O)C(=O)O ?
// result 208 °C

// query Entry to check: Cc1cc(NC(=O)NN(c2ccccc2)c2cccc(C#N)c2)ccc1N1CCCCC1=O
// result 161 to 162 °C

// query Also CC1(N)CN(c2c(F)cc3c(=O)c(C(=O)O)cn(-c4ccc(F)cc4)c3c2F)C1 ?
// result 272 to 277 °C

----------
Measured melting point, listed per entry.

# count of solved cases: 2
COc1cc(F)ccc1OCCN1C(=O)c2ccccc2C1=O
102 to 104 °C
Cc1ccc(CC(N)=O)cn1
175 to 177 °C

// query Form field: reported melting point of CCC(=O)c1ccc(OC)c(OC(C)C)c1
// result 58.1 to 58.7 °C

// query How about this compound: CC(NC(=O)c1cc(Cl)ccc1N)C1CC1 (centres undefined)
// result 135 °C

// query C=Cc1ccc(NC(C)=O)nc1 , same question.
// result 120 to 121 °C

// query Moving on to the next compound: CCOC=C(C(C)=O)C(=O)NCc1ccc(Cl)cc1
// result 103 to 105 °C

// query Do the same for CS(=O)(=O)Nc1ccc(C(=O)Cc2ccccc2)cc1Sc1ccc(F)cc1F please
// result 120 to 122 °C

----------
MEASURED_METRIC: melting point

CCCCCCCCCCCCCCCCCCNC(=O)OCC(CNS(=O)(=O)CCCI)COC (stereo unspecified)
69 to 70 °C
CN1CCc2c(CO)csc2C(c2ccccc2)C1 (stereo unspecified)
115 °C
O=C(c1ccc2nonc2c1)N1CC=CC1
117 to 118 °C
CNC(=O)Nc1ccc(Oc2ccc3c(c2)CCC(C)(OC)O3)cc1 (stereo unspecified)
140 °C
N#Cc1[nH]c(Br)c(C#N)c1Br
227 to 232 °C

// query Reported melting point, molecule CS(=O)(=O)Nc1ccc2c(c1)C(=NO)CC1(CCN(CCc3ccccc3)CC1)O2 : ____
// result 95 to 99 °C

// query Quick one: CCOC(=O)c1nsc(-c2ccccc2)n1
// result 32 to 35 °C

// query Now the same for Cc1nc2c(N)nc3ccccc3c2n1CC(C)(C)C(N)=O
// result 284 to 287 °C

// query What do you get for Nc1nc(N)c(-c2cc(Cl)cc(Cl)c2Cl)c(CO)n1 ?
// result 101 to 105 °C

// query And for Cc1cc(Nc2nccc(-c3sc(CO)nc3C)n2)ccc1N1CCOCC1 ?
// result 93 to 94 °C

// query Try this molecule too: Cc1c(C(N)=O)nnn1Cc1c(F)cccc1F
// result 208 to 210 °C

----------
MEASURED_METRIC: melting point

// query What does the data say about its melting point? Entry: CCCCc1nc2cncnc2[nH]1
// result 168 °C

// query Try this molecule too: Cc1c2c(c(C(O)c3ccccn3)c(C)c1NC(=O)CC(C)(C)C)OC(C)(C)C2 (stereo not given)
// result 176 to 177 °C

// query Same question, O=C1C(c2cccc(C(F)(F)F)c2)=C(NC2CC2)OC1c1ccccc1 (stereo not given) this time
// result 160 to 164 °C

// query Can you check CCOC(=O)c1ccc(N)c(C)c1 next?
// result 76 to 77 °C

// query How about this molecule: Cc1c(-c2ccccc2)oc2c(C(=O)NCCCN3CCC(C(=O)c4ccc(F)cc4)CC3)cccc2c1=O
// result 181 to 183 °C

----------
Each entry below lists one item and its recorded melting point value.

Cc1nn(C)c(C(N)=O)c1[N+](=O)[O-]
153 to 155 °C

// query melting point for O=C(O)c1ccc(C(=O)NOCc2ccc3ccccc3c2)cc1 ?
// result 241 to 243 °C

// query Try this compound too: CNC(=Nc1ccccc1N1CCCCC1)C(C)(C)C
// result 78 °C

// query And then CC(=O)Nc1ccc(OC(F)(F)C(F)F)cc1 , what is it?
// result 121 to 122 °C

// query Here is the next compound: CCC(COC)n1nnc2c(Nc3ccc(C(C)=O)cc3Br)nc(C)nc21 (configuration not stated)
// result 133 to 134 °C

// query Now try CN1C(=O)C2C3Oc4ccccc4OC3=C3C(Oc4cccnc4N3C(=O)Oc3ccccc3)C2C1=O (configuration not stated) .
// result 245 °C

// query Input COc1ccccc1Sc1c(Cl)nc(C)nc1NS(=O)(=O)c1ccc(C(C)(C)C)cc1
// result 155 °C

// query Then what about the compound C=CC(=O)Oc1cccc(-c2ccc3cc(OC(=O)C=C)ccc3c2)c1 ?
// result 75.4 °C

// query Cool, now Oc1ccnc2[nH]cc(-c3ccncn3)c12
// result > 210 °C

// query What would you report for Clc1cc2nc(Cl)c(I)n2cc1Cl ?
// result 215 to 216 °C

// query Repeat for the following compound: CCCc1c(OCC(C)CC(=O)NC(C)CCCc2cccnc2)ccc(C(C)=O)c1O (configuration not stated)
// result 77 to 83 °C

// query How about CCc1ccc(C(=NO)c2ccc(F)cc2)c(O)c1 ?
// result 130 to 132 °C

// query Please do the same for CC(=O)C1(COC(N)=O)CC2C=CC1C2 (configuration not stated) as well.
// result 118 to 119 °C

// query // same read-out, input: O=NN(CCCl)C(=O)NC1OC(CO)C(O)C1O (configuration not stated)
// result 69 to 71 °C

// query Quick one: O=c1[nH]cc(-c2ccncc2)cc1[N+](=O)[O-]
// result 258 to 260 °C

// query Consider next the compound CC(C)(CCC#N)c1ccc(C(=O)Nc2cn3c4c(ccc3n2)OCC4)cc1 in the same way.
// result 227 to 228 °C

// query Also check Nc1ccc(-c2ccc(N)cc2OC(F)(F)F)c(OC(F)(F)F)c1
// result 67.5 to 68 °C

// query Follow-up item: CC(=O)NCc1c(O)cc2c3c(cccc13)C(=O)N(O)C2=O
// result 268 to 272 °C

// query What would you report for CC(C)c1cc(C(C)C)c(CC(=O)NS(=O)(=O)Oc2c(C(C)C)cc(C=O)cc2C(C)C)c(C(C)C)c1 ?
// result 71 to 76 °C
